Origin of measurements: patent EP2886531B1

Entries and their Asu [%] values follow.
# Procedure text: Prolonged treatment of VKDGYI peptide resin with 1 M Oxyma Pure and 20 % piperidine (aspartimide formation)
# Assay type: physicochemical
# Protocol conditions: VKDGYI; Oxyma Pure +, 18 hours

Completed entries (count: 3):
CCCC(CCC)(CCC)OC(=O)C[C@H](NC(=O)OCC1c2ccccc2-c2ccccc21)C(=O)O : 1.3%
CCC(CC)(CC)OC(=O)C[C@H](NC(=O)OCC1c2ccccc2-c2ccccc21)C(=O)O : 2.6%
CCC(C)(CC)OC(=O)C[C@H](NC(=O)OCC1c2ccccc2-c2ccccc21)C(=O)O [Mpe, Fmoc-Asp(OMpe)-OH, reference compound] : 3.8%

Please find the next molecule below.
Form field Asu [%], entry CC(C)(C)OC(=O)C[C@H](NC(=O)OCC1c2ccccc2-c2ccccc21)C(=O)O [tBu, Fmoc-Asp(OtBu)-OH, reference compound] : 8.8%
